# assay summary: protein stability index of a GFP-peptide fusion (GPS, HEK-293T) (PSI 1-6); higher = more stable;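 note: 24-mer peptide tiles fused after GFP, lentivirally expressed, FACS-sorted into six equal bins by GFP/DsRed ratio, decoded by Illumina sequencing, PSI is the read-weighted mean bin number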
# measurement context: treatment: DMSO; c terminus: a fixed tail appended
quantity kind: protein stability index
Give bare numbers.

Here's what some known entries look like.
{"sequence input": "LSIVLERMRYEGVVDIFQTVKMLR [PTPRD]", "protein stability index": 2.1}
{"sequence input": "PPARPRPRSPECRMIPGQPPASAR [IRX6]", "protein stability index": 4.95}
{"sequence input": "GVWAPPAPGFGEDVPNRLVDNIDM [BEX5]", "protein stability index": 4.52}

Hi team, please reply with protein stability index for each item in this list.
1. MSKLGKFFKGGGSSKSRAAPSPQE [CHMP4C]
2. EDFSLPAYMDRRDHPLPEVAHVKH [COX4I1]
3. ITESFTELARIVLLRHGMDRLWRP [RAB40B]

// result
1. 3.56
2. 4.32
3. 2.84
